# target or test system: T1, Human complement C4 protein (Millipore Sigma, Cat. 204886) (human, UniProt P0C0L4 20-675; P0C0L4 680-1446; P0C0L4 1454-1744, limits assumed, natural sulfotyrosines)
# T1 construct: mature
# T1 sequence (P0C0L4 20-675 limits assumed, form in doubt, chain 1 of 3): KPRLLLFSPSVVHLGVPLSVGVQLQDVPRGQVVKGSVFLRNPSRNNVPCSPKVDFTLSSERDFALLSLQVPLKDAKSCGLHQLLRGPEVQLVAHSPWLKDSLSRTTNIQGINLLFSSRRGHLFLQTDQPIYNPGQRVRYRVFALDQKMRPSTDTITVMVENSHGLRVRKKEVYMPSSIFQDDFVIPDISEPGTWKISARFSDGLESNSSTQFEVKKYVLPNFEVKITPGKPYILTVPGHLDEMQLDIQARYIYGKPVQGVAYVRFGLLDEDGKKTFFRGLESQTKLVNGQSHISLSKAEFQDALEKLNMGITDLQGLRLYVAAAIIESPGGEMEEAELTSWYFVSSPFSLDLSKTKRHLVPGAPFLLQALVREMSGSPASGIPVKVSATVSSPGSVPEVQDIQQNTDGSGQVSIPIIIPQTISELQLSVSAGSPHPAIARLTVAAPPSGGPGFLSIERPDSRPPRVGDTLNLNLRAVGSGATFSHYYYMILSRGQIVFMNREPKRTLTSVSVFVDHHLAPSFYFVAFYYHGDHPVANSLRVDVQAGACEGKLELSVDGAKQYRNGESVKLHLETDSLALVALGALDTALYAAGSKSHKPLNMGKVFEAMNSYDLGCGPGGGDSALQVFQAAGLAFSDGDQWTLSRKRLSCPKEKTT
# T1 sequence (P0C0L4 680-1446 limits assumed, form in doubt, chain 2 of 3): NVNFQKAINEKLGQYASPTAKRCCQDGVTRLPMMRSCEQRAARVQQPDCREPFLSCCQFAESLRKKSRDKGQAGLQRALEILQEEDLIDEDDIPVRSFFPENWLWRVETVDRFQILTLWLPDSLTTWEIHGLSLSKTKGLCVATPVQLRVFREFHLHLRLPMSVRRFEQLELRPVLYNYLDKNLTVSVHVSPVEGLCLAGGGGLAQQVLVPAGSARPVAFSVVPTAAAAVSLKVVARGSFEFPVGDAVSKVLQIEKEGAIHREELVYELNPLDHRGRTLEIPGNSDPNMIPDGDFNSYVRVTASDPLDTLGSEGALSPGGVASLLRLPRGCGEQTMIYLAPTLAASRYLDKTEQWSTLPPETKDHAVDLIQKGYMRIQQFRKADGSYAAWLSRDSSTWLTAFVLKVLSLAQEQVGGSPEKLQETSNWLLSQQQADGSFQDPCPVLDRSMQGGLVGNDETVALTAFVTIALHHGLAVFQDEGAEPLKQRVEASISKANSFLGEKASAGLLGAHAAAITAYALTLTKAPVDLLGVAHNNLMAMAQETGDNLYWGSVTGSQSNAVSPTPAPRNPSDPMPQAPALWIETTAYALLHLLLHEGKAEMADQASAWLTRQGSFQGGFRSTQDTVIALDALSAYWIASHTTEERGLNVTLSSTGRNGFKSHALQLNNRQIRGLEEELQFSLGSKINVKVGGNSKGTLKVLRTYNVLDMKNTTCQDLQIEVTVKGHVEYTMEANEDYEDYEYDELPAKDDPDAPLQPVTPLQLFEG
# T1 sequence (P0C0L4 1454-1744 limits assumed, form in doubt, chain 3 of 3): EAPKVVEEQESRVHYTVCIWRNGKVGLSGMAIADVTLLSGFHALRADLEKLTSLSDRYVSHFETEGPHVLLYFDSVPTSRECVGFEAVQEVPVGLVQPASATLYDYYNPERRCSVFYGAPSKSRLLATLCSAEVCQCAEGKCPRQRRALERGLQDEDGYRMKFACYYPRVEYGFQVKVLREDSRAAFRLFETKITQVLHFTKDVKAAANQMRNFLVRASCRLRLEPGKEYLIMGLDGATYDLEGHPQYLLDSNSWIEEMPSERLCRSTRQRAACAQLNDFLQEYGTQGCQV
# protocol summary: ELISA, 50 nM mAb
endpoint label: binding normalized to PSGL-1
The response must contain the number and no unit.

06C04 (antibody, IgG4, V domains shown) VH: EVQLVESGGGLVQPGGSLRLSCAASGFTFSDHYMDWVRQAPGKGLEWVGRSRNKVKSYTTAYAASVEGRITISRDDSKNSLYLEMNSLKTEDTAVYYCVRVRWGGAFDIWGQGTMVTVSS VL: QPVLTQPPSASGSPGQSVTISCTGTSSDVGGYNYVSWYQQHPGKAPKLMIYEVSKRPSGVPDRFSGSKSGNTASLTVSGLQAEDEADYYCSSYAGSNNLRVFGGGTKLTVL	1.1
05A07 (antibody, IgG4, V domains shown) VH: QVQLVQSGSEVKRPGASVKVSCKTSGYTFSNYGIAWVRQAPGQGLEWVGWVSAYNGKTGASQKLQGRVTMTTDRSTTTAYLELRSLQSDDTAVYYCARGVKGGLTGYARDYWGQGTLVIVSS VL: DIVLTQSPRSLPVTLGQPASISCRSSQSLVNRAGDTYLNWFQQRPGQSPRRLIYKVSNRDSGVPDRFSGSGSGTDFTLKISRVEAEDVGVYYCMQGTQWPYTFGQGTKLEIK	1.13

Next binder, please.
input: Item 03E05 (antibody, IgG4, V domains shown) VH: EVKLLESGGDLAQTGGSLRLSCVASGFTFSSYPMSWVRQAPGKGLEWVSAIRRSGATQYADSVKGRFTISRDNSKNTVYLQMNSLRVEDTAVYYCAKGTYDLGQGTLVTVSS VL: DIVMTQTPLSLPVTLGQPASISCRSSQSLVYSDGNTYLNWFHQRPGQSPRRLIYKVSNRDSGVPDRFSGSGSDTEFTLKISRVEAEDVGVYYCMQATHWPLTFGGGTKVEIK has what recorded binding normalized to PSGL-1?
output: 0.47
